# Tested on: NCI/ADR-RES
# protocol-details: NCI tumour cell line growth inhibition, 48 h
Calls of active or inactive are those of the source. Rule as the data show it: active = GI50 up to about 1.1 µM and inactive = higher.
property-name: GI50

                                   molecule                value
0  Cn1c(COC(=O)NC2CCCCC2)c(COC(=O)NC2CCCCC2)c2ccc3cc(Cl)c(Cl)cc3c21   53.1 µM (inactive)
1                 CC(C)(C)COS(=O)OCC(C)(C)C  > 100 µM (inactive)
2  O=C1C=CC2(C=C1)O[C@H](CCc1ccccc1)[C@@H](CCc1ccccc1)O2  > 100 µM (inactive)

Look up and report GI50, with NCI/ADR-RES as system, for CO[C@H]1C[C@H](n2cc(C)c(=O)[nH]c2=O)O[C@@H]1CO
> 100 µM (inactive)

Look up and report GI50, with NCI/ADR-RES as system, for CC(=O)N(C(=O)CC(=O)N1N=C(C)C(/N=N/c2cccc([N+](=O)[O-])c2)C1=O)c1ccc(Cl)cc1 (stereo not given)
> 10 µM (inactive)

###

# System: KM12
# protocol-details: NCI tumour cell line growth inhibition, 48 h
Active and inactive are the calls of the source. No stated cut-off is given here; in the data, active = GI50 up to about 1.1 µM and inactive = higher.
Return exactly one item of active, inactive

compound	assigned-category
CC(C)=CCNc1ncnc2c1ncn2CCC(=O)O	inactive
CCCCCn1cnc2c1S(=O)(=O)N(C)C(NC(=O)c1ccccc1)=N2	inactive
CCOC(=O)C1Oc2ccc([N+](=O)[O-])cc2C1(C)O (stereo unspecified)	inactive

Alright, here's another compound for you.
Hi, do you know how O=C(Nc1nnc(-c2ccc(Cl)cc2)o1)C(SC(=S)N1CCCCC1)c1ccccc1 (stereo unspecified) came out in this test?
inactive

###

Entries annotated with measured GI50
# Test system: HOP-92
# protocol-details: NCI tumour cell line growth inhibition, 48 h
Activity calls are given as the source filed them. Rule as the data show it: active = GI50 up to about 1.1 µM and inactive = higher.

Below, each entry is followed by its recorded GI50 result.
>>> print(df.to_string())
                                   molecule                value
0  CCn1cc(C(=O)O)c(=O)c2cc3c(cc21)S(=O)(=O)CC3  > 100 µM (inactive)
1            CC1(C)O[C@@H]2COC(=O)[C@@H]2O1  > 100 µM (inactive)
2              CCN1CCCCC(=N\O)/C(=N/O)CCCC1  > 100 µM (inactive)
3  Cc1ccc(N/N=C/C2=CC(C)(C)C(C#N)(C#N)C(O)=C2C#N)cc1   5.89 µM (inactive)
4  COCOCC1CCCN1CN1CCC[C@H]1COCOC (stereo partly specified)  > 100 µM (inactive)

Look up and report GI50, with HOP-92 as system, for CCN(CC)CCOC(=O)Cc1cccc2c(=O)cc(-c3ccccc3)oc12
21.7 µM (inactive)

Look up and report GI50, with HOP-92 as system, for O=[N+]([O-])c1cccc2nc3ccccc3c(NCCC[N+]3([O-])CCOCC3)c12
0.0935 µM (active)

###

# Test system: CCRF-CEM
# protocol-details: NCI tumour cell line growth inhibition, 48 h
Calls of active or inactive are those of the source. Cut-off read from the data, not from the text of the source: active = GI50 up to about 1.1 µM and inactive = higher.
Entries annotated with measured GI50

>>> print(df.to_string())
                                   compound  property_name                value
0  CC1=NN(c2cccc(Cl)c2)C2(C1=Cc1ccccc1)C(Cl)C(=O)N2c1nc2ccccc2s1 (stereo not given)           GI50   22.1 µM (inactive)
1  CCn1cc(C(=O)O)c(=O)c2cc3c(cc21)S(=O)(=O)CC3           GI50  > 100 µM (inactive)
2  O=c1/c(=C/c2ccc([N+](=O)[O-])o2)sc2n1[C@@H](c1ccc3c(c1)OCO3)C=C(c1cc(F)c(Cl)cc1Cl)N=2           GI50   3.24 µM (inactive)
3  O=C1CC(Br)c2c(Cl)sc(Cl)c21 (stereo not given)           GI50    0.403 µM (active)

Would you kindly look at the next entry?
Look up and report GI50, with CCRF-CEM as system, for Nc1nc(F)nc2c1ncn2C1OC(COP(=O)(O)O)C(O)C1O (stereo not given)
1.59 µM (inactive)

###

# Tested on: EKVX
# protocol-details: NCI tumour cell line growth inhibition, 48 h
Calls of active or inactive are those of the source. Rule as the data show it: active = GI50 up to about 1.1 µM and inactive = higher.
Return exactly one item of y for active, n for inactive

Solved cases below.
In [3]: df
Out[3]:
                                   compound  assigned_category
0  COC(=O)C1CC(=O)O[C@H]1c1ccc(OC)c(OC)c1 (some centres undefined)                  n
1  CC1CC(C)CC(C)C(O)/C(C#N)=C/C=C/CC(C2CCCC2C(=O)O)OC(=O)CC(O)C(C)C1 (centres undefined)                  y
2      CC1=N/C(=C\c2c(O)ccc3ccccc23)C(=O)O1                  n
3  Cn1c2c(c3ccccc31)CC(=O)N1CCCCC1C21OCCO1 (centres undefined)                  n
4  Cc1[nH]n(-c2nc3c(c(=O)[nH]2)CCC3)c(=O)c1CCO                  n

Hi, do you know how CCCCCn1cnc2c1S(=O)(=O)N(C)C(NC(=O)c1ccccc1)=N2 came out in this test?
n

Hi, do you know how C=C1CCC(CC[C@@H]2CC[C@]3(OC2)O[C@@]2(O)CC[C@]3(C)OC2(C)C)C(C)(C)[C@H]1C/C=C1/C(=O)OC[C@@H]1O (some centres undefined) came out in this test?
n

Hi, do you know how CN(C)[C@H]1CC[C@H]2[C@@H]3CCC4C[C@@H](NC(=O)NC(Cc5ccccc5)c5nccs5)CC[C@]4(C)[C@H]3CC[C@]12C (some centres undefined) came out in this test?
n

Hi, do you know how CCOP(=O)(OCC)/C(C#N)=C(\C)c1ccco1 came out in this test?
n

###

# Tested on: SF-295
# protocol-details: NCI tumour cell line growth inhibition, 48 h
The source made the active and inactive calls. Rule as the data show it: active = GI50 up to about 1.1 µM and inactive = higher.
Return exactly one item of 1 (yes) (active), 0 (no) (inactive)

Hi, do you know how COC(=O)CC(C(C(C)=O)C(=O)OCc1ccccc1)N1C(=O)OCC1c1ccccc1 (stereo unspecified) came out in this test?
0 (no)

###

# Tested on: SK-MEL-28
# protocol-details: NCI tumour cell line growth inhibition, 48 h
Active and inactive are the calls of the source. Cut-off read from the data, not from the text of the source: active = GI50 up to about 1.1 µM and inactive = higher.
property-name: GI50

Below, each entry is followed by its recorded GI50 result.
compound	GI50
COc1cc(S(=O)(=O)Nc2ccc(-c3csc(N4C(=O)C(C)SC4c4cccc(Oc5ccccc5)c4)n3)cc2)ccc1Cl (stereo not drawn)	55.8 µM (inactive)
COC(=O)C(=O)C(C(=O)C(=O)Nc1cccc(C(C)=O)c1)c1nc2ccccc2nc1O (stereo not drawn)	> 100 µM (inactive)

Would you kindly look at the next entry?
Indicate its recorded GI50; the compound in question is CNC1C(=O)C(C)C(O)(C(CC(C)C(O)/C=C/C=C/CNC(=O)C(C)(C)C(O)\C(C)=C/C=C\C=C\Cc2cnc(C)o2)OC)C12C(=O)OC2C.CNC1C(=O)C(C)C(O)(C(CC(C)C(O)/C=C/C=C/CNC(=O)C(C)(C)C(O)\C(C)=C/C=C\C=C\Cc2cnc(C)o2)OC)C12C(=O)OC2COC (stereo not drawn)
23.1 µM (inactive)

###

# Tested on: 786-0
# protocol-details: NCI tumour cell line growth inhibition, 48 h
The source made the active and inactive calls. Cut-off read from the data, not from the text of the source: active = GI50 up to about 1.1 µM and inactive = higher.
property-name: GI50

compound	GI50
O=C(/C=C(\S/C=C(/c1ccccc1)N1CCn2c(C(=O)c3ccccc3)c(C(=O)c3ccccc3)c(C(=O)c3ccccc3)c21)C(=O)c1ccccc1)c1ccccc1	> 10 µM (inactive)
O=CN1CCN(C(=O)c2ccco2)C1=S	3.13 µM (inactive)
COc1ccccc1-n1cnc2c1=NC(C)(C)NC=2C(N)=O	> 100 µM (inactive)
O=C(O)c1cc(CC2Cc3cc4c(cc3C2=O)CCC4)cc2c1CCC2 (stereo not drawn)	> 100 µM (inactive)
CC(=O)NNc1nc(C)c(C(/C=C/c2ccc(Cl)cc2)=N\N=C(N)N)s1	> 100 µM (inactive)
CC(C)CC(N)C(=O)NC(C(=O)NC(CCCNC(=N)N)C(=O)NC(CS)C(=O)NC1CSCC(C(=O)NC(Cc2ccccc2)C(=O)NC(C(=O)NC(CCCNC(=N)N)C(=O)O)C(C)C)NC(=O)C2CCCN2C(=O)C(CCCCN)NC(=O)C2CCCN2C(=O)C2CCCN2C(=O)C(Cc2ccc(O)cc2)NC(=O)C(CO)NC(=O)C(CCCCN)NC(=O)C(C(C)O)NC(=O)C(Cc2c[nH]c3ccccc23)NC1=O)C(C)C (stereo not drawn)	> 25 µM (inactive)
O=C1c2ccccc2C(=O)N1CCCCNOCCCN1C(=O)c2ccccc2C1=O	> 100 µM (inactive)

Would you kindly look at the next entry?
Indicate its recorded GI50; the compound in question is c1csc(-c2ccc(-c3ccc(-c4ccc(-c5cccs5)s4)s3)s2)c1
> 100 µM (inactive)

Sourced from ChEMBL document CHEMBL1201862
